System: Polygonum convolvulus
assay details: Pre-emergence herbicidal effect
Assay type: in vivo
condition notes: 1280 g/ha, visual assessment after 3 weeks
Would you mind telling me the reported herbicidal activity POLCO of each entry?
All answers are understood in %, so give the number only.

Asked: Report herbicidal activity POLCO, nothing else, for this compound: Cc1ccc2c(c1)[C@H](Nc1cnc(S(C)(=O)=O)nc1C(N)=O)[C@@H](C)C2 [compound 93]
Given back: 100

Asked: Quick one: give measured herbicidal activity POLCO for Cc1ccc2c(c1)[C@H](Nc1cnc(S(C)(=O)=O)nc1)[C@@H](C)C2 [compound 134]
Given back: 100

Asked: Give herbicidal activity POLCO for CCc1ccc2c(c1)C(Nc1cnc(S(C)(=O)=O)nc1)CCO2 (racemic) [compound 65]
Given back: 100

Asked: Give the reported herbicidal activity POLCO for this compound. CCc1ccc2c(c1)C(Nc1cnc(S(C)(=O)=O)nc1C#N)CCO2 (racemic) [compound 66]
Given back: 90

Asked: Identify measured herbicidal activity POLCO associated with CCc1ccc2c(c1)C(Nc1cnc(S(C)(=O)=O)nc1C(=O)O)CCO2 (racemic) [compound 68]
Given back: 100

Asked: Check the records and state herbicidal activity POLCO for CS(=O)(=O)c1ncc(N[C@@H]2CCc3ccccc32)cn1 [compound 131]
Given back: 100

Reference for the values: patent US9375002B2
